Just for reference, paper PMC5540273 is where these values come from.

System: CSNK1A1;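 also: KINOMEscan kinase panel screen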
Conditions: concentration: 1 μM, replicates: in singlicate; n = 1
%Inh by entry:
Provide a numeric answer, followed by its unit.

Some entries whose results are on file:
# return recorded %Inh for input O=C(Nc1n[nH]c2cc(-c3ccoc3)ccc12)C1CC1
0%

# return recorded %Inh for entry CC(=O)N1CCN(c2ccc(Nc3nccc(-c4sc(C(C)C)nc4-c4cccc(NS(=O)(=O)c5cccc(Cl)c5)c4)n3)cn2)CC1
23%

Next, consider the following molecule.
Using the record for C[C@@H](Oc1cc(-n2cnc3cc(-c4ccnc(NCCS(C)(=O)=O)c4)ccc32)sc1C(N)=O)c1ccccc1Cl , state its measured %Inh.
0%
